Source listed as patent US10758534B2.

# TARGET_UNDER_TEST: F508del (Homo sapiens, UniProt P13569, DEL508-508)
# Construct: expressed in transfected cells
# Sequence (P13569 with tags, fused parts or gaps DEL508-508): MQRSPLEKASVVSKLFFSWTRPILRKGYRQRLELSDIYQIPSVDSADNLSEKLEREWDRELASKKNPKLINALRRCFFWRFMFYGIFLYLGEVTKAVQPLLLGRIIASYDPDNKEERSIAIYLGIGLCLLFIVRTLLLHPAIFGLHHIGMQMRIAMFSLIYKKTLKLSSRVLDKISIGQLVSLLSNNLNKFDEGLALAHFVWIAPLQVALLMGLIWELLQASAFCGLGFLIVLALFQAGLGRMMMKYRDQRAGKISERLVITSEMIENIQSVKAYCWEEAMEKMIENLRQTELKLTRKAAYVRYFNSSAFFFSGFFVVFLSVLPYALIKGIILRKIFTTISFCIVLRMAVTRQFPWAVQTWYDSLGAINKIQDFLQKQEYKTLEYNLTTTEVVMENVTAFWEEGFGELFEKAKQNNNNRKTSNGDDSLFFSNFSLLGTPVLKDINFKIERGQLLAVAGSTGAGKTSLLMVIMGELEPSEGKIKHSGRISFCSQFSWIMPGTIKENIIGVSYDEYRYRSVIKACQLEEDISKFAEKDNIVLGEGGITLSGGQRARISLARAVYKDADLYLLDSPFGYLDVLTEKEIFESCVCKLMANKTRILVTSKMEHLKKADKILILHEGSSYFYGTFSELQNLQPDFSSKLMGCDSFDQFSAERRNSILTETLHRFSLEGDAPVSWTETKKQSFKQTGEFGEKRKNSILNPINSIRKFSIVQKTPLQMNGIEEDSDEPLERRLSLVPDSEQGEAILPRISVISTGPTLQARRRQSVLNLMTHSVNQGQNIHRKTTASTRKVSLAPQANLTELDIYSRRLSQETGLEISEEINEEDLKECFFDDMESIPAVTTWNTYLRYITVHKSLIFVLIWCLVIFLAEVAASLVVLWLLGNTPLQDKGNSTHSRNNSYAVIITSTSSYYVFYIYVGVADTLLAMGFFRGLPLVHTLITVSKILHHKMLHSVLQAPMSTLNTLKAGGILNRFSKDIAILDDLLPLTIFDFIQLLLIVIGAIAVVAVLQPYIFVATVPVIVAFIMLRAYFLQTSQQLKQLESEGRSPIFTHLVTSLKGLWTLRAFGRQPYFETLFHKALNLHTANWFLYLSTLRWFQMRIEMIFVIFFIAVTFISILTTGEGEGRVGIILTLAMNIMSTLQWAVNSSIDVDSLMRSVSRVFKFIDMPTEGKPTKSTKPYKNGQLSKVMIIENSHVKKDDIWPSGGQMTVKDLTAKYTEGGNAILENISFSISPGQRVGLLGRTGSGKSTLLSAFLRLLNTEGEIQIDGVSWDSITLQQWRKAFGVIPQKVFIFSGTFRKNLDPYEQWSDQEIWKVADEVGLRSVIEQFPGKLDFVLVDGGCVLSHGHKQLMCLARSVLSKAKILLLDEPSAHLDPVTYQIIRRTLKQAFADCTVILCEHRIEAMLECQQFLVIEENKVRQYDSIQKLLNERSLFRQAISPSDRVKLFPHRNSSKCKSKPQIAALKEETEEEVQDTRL
# ASSAY_PROTOCOL: Protocol 2: FRET membrane potential optical assay (VIPR), identification of correction compounds
# Format: cell-based
# TEST_PARAMETERS: F508del CFTR modulator activity; compounds of Table 1; read-out: EC30
Recorded EC30 by entry

| COMPOUND | TARGET_UNDER_TEST | EC30 |
| --- | --- | --- |
| C[C@@H]1CN(c2nc(C3CC4CCC3C4)ccc2C(=O)NS(=O)(=O)c2cccnc2N)C(C)(C)C1 (stereo partly shown) [Compound 2097] | F508del (Homo sapiens, UniProt P13569, DEL508-508) | < 3000 nM |
| CC1CN(c2ncccc2C(=O)NS(=O)(=O)c2cccc(OCC(C)C3CCCCC3)n2)C(C)(C)C1 (stereo not shown) [Compound 2019] | F508del (Homo sapiens, UniProt P13569, DEL508-508) | < 3000 nM |
| COc1c(F)cc(F)cc1-c1ccc(C(=O)NS(=O)(=O)c2cccnc2N)c(N2C[C@@H](C)CC2(C)C)n1 [Compound 2006] | F508del (Homo sapiens, UniProt P13569, DEL508-508) | < 3000 nM |
| COc1cc(-c2ccc(C(=O)NS(=O)(=O)c3cccnc3N)c(N3C[C@@H](C)CC3(C)C)n2)ccc1F [Compound 2124] | F508del (Homo sapiens, UniProt P13569, DEL508-508) | < 3000 nM |

----------
# TARGET_UNDER_TEST: F508del (Homo sapiens, UniProt P13569, DEL508-508)
# Construct: expressed in transfected cells
# ASSAY_PROTOCOL: Protocol 1: membrane potential optical assay (FLIPR III, voltage sensing dye), identification of potentiator compounds
# Format: cell-based
# TEST_PARAMETERS: Table 3, compounds of Table 1

| COMPOUND | EC30 |
| --- | --- |
| CCOc1ccccc1-c1ccc(C(=O)NS(=O)(=O)c2ccc[nH]c2=O)c(N2C[C@@H](C)CC2(C)C)n1 | +++ (“+++” means <3 uM) |
| CC1CN(c2ncccc2C(=O)NS(=O)(=O)c2cccc(N(C)CCc3ccccc3)n2)C(C)(C)C1 (stereo not shown) | +++ (“+++” means <3 uM) |
| CC(C)CCOc1ccc(-c2ccc(C(=O)NS(=O)(=O)c3cccc(N)n3)c(N3CC(C)CC3(C)C)n2)cn1 (stereo not shown) | +++ (“+++” means <3 uM) |

----------
Reported EC30 values follow for various molecules
# TARGET_UNDER_TEST: F508del (Homo sapiens, UniProt P13569, DEL508-508)
# Construct: expressed in transfected cells
# ASSAY_PROTOCOL: Protocol 2: FRET membrane potential optical assay (VIPR), identification of correction compounds
# Format: cell-based
# TEST_PARAMETERS: F508del CFTR modulator activity; compounds of Table 1; read-out: EC30

| MOLECULE | EC30 |
| --- | --- |
| COc1cc(OC)cc(Oc2cccc(S(=O)(=O)NC(=O)c3cccnc3N3CC(C)CC3(C)C)n2)c1 (stereo not shown) [Compound 2293] | < 3 µM |
| CC1CN(c2ncccc2C(=O)NS(=O)(=O)c2cccc(NC3CCCC3)n2)C(C)(C)C1 (stereo not shown) [Compound 2053] | < 3 µM |
| CC(C)Cc1ccc(C(=O)NS(=O)(=O)c2ccc[nH]c2=O)c(N2C[C@@H](C)CC2(C)C)n1 [Compound 2467] | < 3 µM |
| CC1CN(c2ncc(-c3ccc(C(C)(C)C)cc3)cc2C(=O)NS(=O)(=O)c2cccc(N)n2)C(C)(C)C1 (stereo not shown) [Compound 2463] | < 3 µM |
| Nc1cccc(S(=O)(=O)NC(=O)c2cccnc2Oc2ccccc2-c2nc3ccccc3o2)n1 [Compound 2544] | > 10 µM |
| COc1ccccc1CN(C)c1cccc(S(=O)(=O)NC(=O)c2cccnc2N2CC(C)CC2(C)C)n1 (stereo not shown) [Compound 2090] | < 3 µM |
| CC(C)COc1cc(F)cc(-c2ccc(C(=O)NS(=O)(=O)c3cccc(N)n3)c(N3CCCC4CC43)n2)c1 (stereo not shown) [Compound 2376] | < 3 µM |
| CC1CN(c2ncccc2C(=O)NS(=O)(=O)c2cccc(Oc3cccc4[nH]ccc34)n2)C(C)(C)C1 (stereo not shown) [Compound 2338] | < 3 µM |
| C[C@@H]1CN(c2nc(C(C)(C)C)c(C3=CCN(C(=O)Cc4ccccc4)CC3)cc2C(=O)NS(=O)(=O)c2cccc(N)n2)C(C)(C)C1 [Compound 2417] | < 3 µM |
| CC(C)COc1cc(F)cc(-c2ccc(C(=O)NS(=O)(=O)c3cccc(N)n3)c(N3CCC(C)CC(C)C3)n2)c1 (stereo not shown) [Compound 2479] | < 3 µM |
| C[C@@H]1CN(c2nc(-c3ccccc3O)ccc2C(=O)NS(=O)(=O)c2cccc(N)n2)C(C)(C)C1 [Compound 2555] | < 3 µM |
| CC1(C)C(Cc2ccccc2)CCN1c1ncccc1C(=O)NS(=O)(=O)c1cccc(N)n1 (stereo not shown) [Compound 2275] | 3 to 10 µM |
| CC1CN(c2ncccc2C(=O)NS(=O)(=O)c2cccc(N(C)CC(=O)OC(C)(C)C)n2)C(C)(C)C1 (stereo not shown) [Compound 2251] | < 3 µM |
| CC(C)Cc1ccc(-c2cnc(N3CC(C)CC3(C)C)c(C(=O)NS(=O)(=O)c3cccc(N)n3)c2)cc1 (stereo not shown) [Compound 2395] | < 3 µM |
| C[C@@H]1CN(c2nc(-n3ccc(OCC4CC4)n3)ccc2C(=O)NS(=O)(=O)c2cccnc2N)C(C)(C)C1 [Compound 2691] | < 3 µM |
| Cc1ccc(-c2ccc(C(=O)NS(=O)(=O)c3cccnc3N)c(N3C[C@@H](C)CC3(C)C)n2)cc1 [Compound 2132] | < 3 µM |
| CC1CN(c2ncccc2C(=O)NS(=O)(=O)c2cccc(N3CCCC3C(F)(F)F)n2)C(C)(C)C1 (stereo not shown) [Compound 2055] | < 3 µM |
| CCOc1cc(-c2ccc(C(=O)NS(=O)(=O)c3ccc[nH]c3=O)c(N3C[C@@H](C)CC3(C)C)n2)ccc1F [Compound 2459] | < 3 µM |
| CC1CN(c2ncccc2C(=O)NS(=O)(=O)c2cccc(Nc3ccc(-c4cnco4)cc3)n2)C(C)(C)C1 (stereo not shown) [Compound 2546] | < 3 µM |
| CC(C)COc1cccc(-c2cnc(N3CC(C)CC3(C)C)c(C(=O)NS(=O)(=O)c3cccc(N)n3)c2)c1 (stereo not shown) [Compound 2089] | < 3 µM |
| CC1CN(c2ncccc2C(=O)NS(=O)(=O)c2cccc(N3CCN(c4ncccn4)CC3)n2)C(C)(C)C1 (stereo not shown) [Compound 2621] | 3 to 10 µM |
| C[C@@H]1CN(c2nc(-c3cnc(N(C)C)nc3)ccc2C(=O)NS(=O)(=O)c2cccnc2N)C(C)(C)C1 [Compound 2021] | 3 to 10 µM |
| CC(Oc1ncccc1C(=O)NS(=O)(=O)c1cccc(N)n1)c1ccccc1C(F)(F)F (stereo not shown) [Compound 2501] | 3 to 10 µM |
| CC1CN(c2ncccc2C(=O)NS(=O)(=O)c2cccc(OC3(C)CCCCCC3)n2)C(C)(C)C1 (stereo not shown) [Compound 2057] | < 3 µM |
| CCOc1ccc(CCNc2cccc(S(=O)(=O)NC(=O)c3cccnc3N3CC(C)CC3(C)C)n2)cc1 (stereo not shown) [Compound 2642] | < 3 µM |
| C[C@@H]1CN(c2nc(-c3ccc4cc[nH]c4c3)ccc2C(=O)NS(=O)(=O)c2cccnc2N)C(C)(C)C1 [Compound 2054] | < 3 µM |
| C[C@@H]1CN(c2nc(-c3cccc(C(F)(F)F)c3)ccc2C(=O)NS(=O)(=O)c2cccc(N)n2)C(C)(C)C1 [Compound 2392] | < 3 µM |
| COCCOc1ncc(-c2ccc(C(=O)NS(=O)(=O)c3cccc(N)n3)c(N3C[C@@H](C)CC3(C)C)n2)cc1C [Compound 2582] | < 3 µM |

----------
Listing of entries alongside the reported EC30.
# TARGET_UNDER_TEST: F508del (Homo sapiens, UniProt P13569, DEL508-508)
# Construct: expressed in transfected cells
# ASSAY_PROTOCOL: Protocol 2: FRET membrane potential optical assay (VIPR), identification of correction compounds
# Assay type: cell-based
# TEST_PARAMETERS: F508del CFTR modulator activity; compounds of Table 1; read-out: EC30
RECORDED_ENDPOINT: EC30

| MOLECULE | TARGET_UNDER_TEST | DATA_VALUE |
| --- | --- | --- |
| CCOc1cc(F)cc(-c2ccc(C(=O)NS(=O)(=O)c3ccc[nH]c3=O)c(N3C[C@@H](C)CC3(C)C)n2)c1 | F508del (Homo sapiens, UniProt P13569, DEL508-508) | < 3 µM |
| CC1CN(c2ncc(-c3ccccc3C#N)cc2C(=O)NS(=O)(=O)c2cccc(N)n2)C(C)(C)C1 (stereo not drawn) | F508del (Homo sapiens, UniProt P13569, DEL508-508) | 3 to 10 µM |
| CCOc1cc(C)cc(-c2ccc(C(=O)NS(=O)(=O)c3cc[nH]n3)c(Oc3c(C)cc(C)cc3C)n2)n1 | F508del (Homo sapiens, UniProt P13569, DEL508-508) | < 3 µM |
| Cc1cc(F)cc(-c2ccc(C(=O)NS(=O)(=O)c3ccc[nH]c3=O)c(N3C[C@@H](C)CC3(C)C)n2)c1 | F508del (Homo sapiens, UniProt P13569, DEL508-508) | < 3 µM |
| C[C@@H]1CN(c2nc(-c3ccccc3C(F)(F)F)ccc2C(=O)NS(=O)(=O)c2cccnc2N)C(C)(C)C1 | F508del (Homo sapiens, UniProt P13569, DEL508-508) | < 3 µM |
| CC1CN(c2ncc(-c3ccccc3OC(C)C)cc2C(=O)NS(=O)(=O)c2cccc(N)n2)C(C)(C)C1 (stereo not drawn) | F508del (Homo sapiens, UniProt P13569, DEL508-508) | < 3 µM |
| CC1CN(c2ncccc2C(=O)NS(=O)(=O)c2cccc(NCCN(C)C(=O)OC(C)(C)C)n2)C(C)(C)C1 (stereo not drawn) | F508del (Homo sapiens, UniProt P13569, DEL508-508) | 3 to 10 µM |
| CC1CN(c2ncccc2C(=O)NS(=O)(=O)c2cccc(NC3CC3)n2)C(C)(C)C1 (stereo not drawn) | F508del (Homo sapiens, UniProt P13569, DEL508-508) | 3 to 10 µM |
| CC1CN(c2ncccc2C(=O)NS(=O)(=O)c2cccc(N3CCc4cc(Cl)ccc43)n2)C(C)(C)C1 (stereo not drawn) | F508del (Homo sapiens, UniProt P13569, DEL508-508) | < 3 µM |
| COc1cccc(Nc2cccc(S(=O)(=O)NC(=O)c3cccnc3N3CC(C)CC3(C)C)n2)n1 (stereo not drawn) | F508del (Homo sapiens, UniProt P13569, DEL508-508) | 3 to 10 µM |
| CC(C)Cc1ccc(C(=O)NS(=O)(=O)c2ccccc2)c(N2C[C@@H](C)CC2(C)C)n1 | F508del (Homo sapiens, UniProt P13569, DEL508-508) | < 3 µM |
| CC(C)COc1cc(F)cc(-c2ccc(C(=O)NS(=O)(=O)c3cccc(N)n3)c(NCC3CCCCC3)n2)c1 | F508del (Homo sapiens, UniProt P13569, DEL508-508) | 3 to 10 µM |
| CC(C)Cc1ccc(C(=O)NS(=O)(=O)c2cccnc2N)c(N2C[C@@H](C)CC2(C)C)n1 | F508del (Homo sapiens, UniProt P13569, DEL508-508) | < 3 µM |
| C[C@@H]1CN(c2nc(C3CCCOC3)ccc2C(=O)NS(=O)(=O)c2cccnc2N)C(C)(C)C1 (stereo partly drawn) | F508del (Homo sapiens, UniProt P13569, DEL508-508) | < 3 µM |
| CCCCN1CCCN(c2cccc(S(=O)(=O)NC(=O)c3cccnc3N3CC(C)CC3(C)C)n2)CC1 (stereo not drawn) | F508del (Homo sapiens, UniProt P13569, DEL508-508) | 3 to 10 µM |
